Biological target: glutathione S-transferase (GST)-fused full-length human Syk protein (Homo sapiens)
Construct: (GST)-fused full-length human Syk protein; GST (glutathione S-transferase); purchased Carna Biosciences
Assay: Syk enzyme assay
Type: biochemical
Conditions: Syk enzyme assay, Test Example 1; read-out: IC50 of Syk-inhibitory activity
recorded metric: IC50

Please fill in: IC50 reported for CCn1ncc2cc(Nc3nc(N[C@H](CC(C)C)[C@H](C)N)c(F)cc3C(N)=O)ccc21 [Example 006-384] = < 10 nM

Please fill in: IC50 reported for NC(=O)c1cc(F)c(N[C@@H]2CCCC[C@@H]2N)nc1Nc1cncnc1 [Example 004-001] = 100 to 1000 nM

Please fill in: IC50 reported for CC(C)C[C@H](CN)Nc1nc(Nc2ccc3scnc3c2)c(C(N)=O)cc1F [Example 006-147] = < 10 nM

Please fill in: IC50 reported for COC(C)CCOc1cc(Nc2nc(NC3CCCCC3N)c(F)cc2C(N)=O)ccn1 (stereo not shown) [Example 002-085] = 10 to 50 nM

Please fill in: IC50 reported for Cc1nn(CCF)c2ccc(Nc3nc(NC4CCCCC4N)c(F)cc3C(N)=O)cc12 (stereo not shown) [Example 002-209] = < 10 nM

Please fill in: IC50 reported for CC1(C)Oc2cccnc2N(c2ccc(Nc3nc(NC4CCCCC4N)c(F)cc3C(N)=O)cn2)C1=O (stereo not shown) [Example 002-159] = 100 to 1000 nM

Please fill in: IC50 reported for CCC[C@@H](Nc1nc(Nc2ccnc(OCC)c2)c(C(N)=O)cc1F)[C@H](C)N [Example 006-309] = < 10 nM

Please fill in: IC50 reported for C[C@H](N)[C@@H](CC1CC1)Nc1nc(Nc2cncc(-c3ccccc3)c2)c(C(N)=O)cc1F [Example 006-351] = < 10 nM

Please fill in: IC50 reported for C[C@H](N)[C@@H](CC1CC1)Nc1nc(Nc2ccnc(-n3cncn3)c2)c(C(N)=O)cc1F [Example 006-353] = < 10 nM

Please fill in: IC50 reported for NC(=O)c1cc(F)c(N[C@@H]2CCCC[C@@H]2N)nc1Nc1cccc2c1CNC2=O [Example 004-009] = < 10 nM

Please fill in: IC50 reported for NC(=O)c1cc(F)c(NC2CCCCC2N)nc1Nc1cccc2nn(CC3CC3)cc12 (stereo not shown) [Example 002-032] = < 10 nM

Please fill in: IC50 reported for NC(=O)c1cc(F)c(N[C@@H]2CCCC[C@@H]2N)nc1Nc1cncc(-c2ccsc2)c1 (relative stereo) [Example 004-077] = < 10 nM

Please fill in: IC50 reported for Cc1nn(CC(F)F)c2ccc(Nc3nc(N[C@H](CC4CC4)[C@H](C)N)c(F)cc3C(N)=O)cc12 [Example 006-445] = < 10 nM

Please fill in: IC50 reported for NC(=O)c1cc(F)c(N[C@@H]2CCCC[C@@H]2N)nc1Nc1cc(C(F)(F)F)cc2c1ccn2CCN1CCOCC1 [Example 004-087] = < 10 nM

Please fill in: IC50 reported for NC(=O)c1cc(F)c(NCCc2cnc[nH]2)nc1Nc1ccc2ncccc2c1 [Example 012-014] = 100 to 1000 nM

Please fill in: IC50 reported for NC(=O)c1cc(Br)c(NC2CCCCC2N)nc1Nc1cnc2ccccc2c1 (stereo not shown) [Example 035-002] = < 10 nM

Please fill in: IC50 reported for CCn1ncc2cc(Nc3nc(N[C@H](C)[C@H](C)N)c(F)cc3C(N)=O)ccc21 (racemic) [Example 006-184] = < 10 nM

Please fill in: IC50 reported for NC(=O)c1cc(F)c(N[C@@H]2CCCC[C@@H]2N)nc1Nc1ccnc(COCc2ccccc2)c1 (relative stereo) [Example 004-192] = 50 to 100 nM

Please fill in: IC50 reported for COc1cc(Nc2nc(N[C@H](c3ccc(F)cc3)[C@H](C)N)c(F)cc2C(N)=O)cc(OC)n1 [Example 006-557] = < 10 nM
